assay comment: GI S9 stability - no PMSF
Format: in vitro ADME
test settings: pH 7.4; human intestinal S9, PMSF-free; read-out: GIS9-HUMAN-NoPMSF T1/2
Parameter threshold = 2 min. Response is Met when half-life at 2 µM meets or exceeds it, else Not met.

{"columns": ["molecule", "answer label"],
 "data": [
  ["N#C[C@@]1(c2ccc3c(N)ncnn23)O[C@H](COC(=O)OCC23CC(C2)C3)[C@@H](O)[C@H]1O [Compound 72]", "Not met"],
  ["CC1=CCC(C(C)(C)OC(=O)OC[C@H]2O[C@@](C#N)(c3ccc4c(N)ncnn34)[C@H](O)[C@@H]2O)CC1 (stereo partly drawn) [Compound 155]", "Met"],
  ["CCCCCCCCCCOC(=O)OC[C@H]1O[C@@](C#N)(c2ccc3c(N)ncnn23)[C@H](O)[C@@H]1O [Compound 124]", "Not met"],
  ["CC(C)(C)COC(=O)OC[C@H]1O[C@@](C#N)(c2ccc3c(N)ncnn23)[C@H](O)[C@@H]1O [Compound 3]", "Not met"],
  ["C[C@@H](OC(=O)OC[C@H]1O[C@@](C#N)(c2ccc3c(N)ncnn23)[C@H](O)[C@@H]1O)c1ccccc1 [Compound 87]", "Not met"],
  ["N#C[C@@]1(c2ccc3c(N)ncnn23)O[C@H](COC(=O)OCCCCCC(=O)O)[C@@H](O)[C@H]1O [Compound 140]", "Met"],
  ["CC1(C)CC(COC(=O)OC[C@H]2O[C@@](C#N)(c3ccc4c(N)ncnn34)[C@H](O)[C@@H]2O)C1 [Compound 117]", "Not met"],
  ["CCOC(=O)C(C)(C)OC(=O)OC[C@H]1O[C@@](C#N)(c2ccc3c(N)ncnn23)[C@H](O)[C@@H]1O [Compound 77]", "Met"],
  ["N#C[C@@]1(c2ccc3c(N)ncnn23)O[C@H](COC(=O)OCC2(c3ccccc3)CC2)[C@@H](O)[C@H]1O [Compound 116]", "Not met"],
  ["N#C[C@@]1(c2ccc3c(N)ncnn23)O[C@H](COC(=O)OCc2ncccn2)[C@@H](O)[C@H]1O [Compound 91]", "Met"],
  ["CC(C)[C@@H]1CC[C@@H](C)C[C@H]1OC(=O)OC[C@H]1O[C@@](C#N)(c2ccc3c(N)ncnn23)[C@H](O)[C@@H]1O [Compound 83]", "Met"],
  ["CCOC(=O)OC[C@H]1O[C@@](C#N)(c2ccc3c(N)ncnn23)[C@H](O)[C@@H]1O [Compound 6]", "Met"],
  ["N#C[C@@]1(c2ccc3c(N)ncnn23)O[C@H](COC(=O)OCC2CCCC2)[C@@H](O)[C@H]1O [Compound 85]", "Not met"],
  ["CC(C)C(C)(C)OC(=O)OC[C@H]1O[C@@](C#N)(c2ccc3c(N)ncnn23)[C@H](O)[C@@H]1O [Compound 68]", "Met"],
  ["CC(C)OC(=O)Nc1ncnn2c([C@]3(C#N)O[C@H](COC(=O)OC(C)C)[C@@H](O)[C@H]3O)ccc12 [Compound 137]", "Met"],
  ["N#CC12CC(COC(=O)OC[C@H]3O[C@@](C#N)(c4ccc5c(N)ncnn45)[C@H](O)[C@@H]3O)(C1)C2 [Compound 121]", "Not met"],
  ["CCC(C)(C)OC(=O)OC[C@H]1O[C@@](C#N)(c2ccc3c(N)ncnn23)[C@H](OC(=O)OC(C)(C)CC)[C@@H]1OC(=O)OC(C)(C)CC [Compound 60]", "Met"],
  ["CC(C)(C)OC(=O)OC[C@H]1O[C@@](C#N)(c2ccc3c(N)ncnn23)[C@H](O)[C@@H]1O [Compound 46]", "Met"],
  ["CC1(COC(=O)OC[C@H]2O[C@@](C#N)(c3ccc4c(N)ncnn34)[C@H](O)[C@@H]2O)CCC1 [Compound 122]", "Not met"],
  ["CC1(C)[C@@H]2CC[C@@]1(C)[C@@H](OC(=O)OC[C@H]1O[C@@](C#N)(c3ccc4c(N)ncnn34)[C@H](O)[C@@H]1O)C2 [Compound 51]", "Met"],
  ["CCOC(=O)OC[C@H]1O[C@@](C#N)(c2ccc3c(N)ncnn23)[C@@H]2OC(CC)O[C@@H]21 (stereo partly drawn) [Compound 132]", "Not met"],
  ["C=CCOC(=O)OC[C@H]1O[C@@](C#N)(c2ccc3c(N)ncnn23)[C@H](O)[C@@H]1O [Compound 64]", "Not met"],
  ["COC(=O)OC[C@H]1O[C@@](C#N)(c2ccc3c(N)ncnn23)[C@H](O)[C@@H]1O [Compound 5]", "Met"],
  ["CC12CCC(C1)C(C)(C)C2OC(=O)OC[C@H]1O[C@@](C#N)(c2ccc3c(N)ncnn23)[C@H](O)[C@@H]1O (mixture of isomers) [Compound 48]", "Met"],
  ["CC(C)OC(=O)OC[C@H]1O[C@@](C#N)(c2ccc3c(N)ncnn23)[C@H](O)[C@@H]1OC(=O)CCCCCCC(=O)O [Compound 130]", "Not met"],
  ["N#C[C@@]1(c2ccc3c(N)ncnn23)O[C@H](COC(=O)OC2CCC(F)(F)CC2)[C@@H](O)[C@H]1O [Compound 84]", "Not met"],
  ["N#C[C@@]1(c2ccc3c(N)ncnn23)O[C@H](COC(=O)OCC2CCC2)[C@@H](O)[C@H]1O [Compound 53]", "Not met"]
]}
